test system: 941728-121-R-J1-PDC complex spheroid viability; assay: Anticancer human tumor 941728-121-R-J1-PDC patient-derived lung adenocarcinoma cell line growth inhibition [RAS]; conditions: second compound 0.316 µM; first compound 10 µM; active means viability on the fitted dose curve at most 10% of control; inactive means the rest;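 further: spheroids exposed to compounds for 7 days before readout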
Your reply should match one of these outcome classes. T (active), F (inactive)

Answered examples (4):
compound="C[C@@H](NC(=O)c1ncnc(N)c1Cl)c1ncc(C(=O)Nc2cc(C(F)(F)F)c(Cl)cn2)s1 + C=CC(=O)N1CCN(c2nc(OCC3CCCN3C)nc3c(F)c(-c4nc(N)cc(C)c4C(F)(F)F)c(Cl)cc23)C(C)C1" cat=F
compound="CC1(O)CCCC1n1c(=O)c(C(F)F)cc2cnc(NC3CCN(S(C)(=O)=O)CC3)nc21 (stereo unspecified) + C#Cc1c(F)ccc2cc(O)cc(-c3ncc4c(N5CC6CCC(C5)N6)nc(OCC56CCCN5CC(F)C6)nc4c3F)c12" cat=F
compound="NC1c2ccccc2OC12CCN(c1cnc3c(N4CCCc5ncccc54)n[nH]c3n1)CC2 (stereo unspecified) + C#Cc1c(F)ccc2cc(O)cc(-c3ncc4c(N5CC6CCC(C5)N6)nc(OCC56CCCN5CC(F)C6)nc4c3F)c12" cat=F
compound="CC(=O)OC12COC1CC(O)C1(C)C(=O)C(O)C3=C(C)C(OC(=O)C(O)C(NC(=O)OC(C)(C)C)c4ccccc4)CC(O)(C(OC(=O)c4ccccc4)C21)C3(C)C (stereo unspecified) + C#Cc1c(F)ccc2cc(O)cc(-c3ncc4c(N5CC6CCC(C5)N6)nc(OCC56CCCN5CC(F)C6)nc4c3F)c12" cat=F

**Q:** Per the assay record, what outcome was assigned to CC(Nc1ccc2c(c1)OCCn1cc(N3C(=O)OCC3C(F)F)nc1-2)C(N)=O (stereo unspecified) + C#Cc1c(F)ccc2cc(O)cc(-c3ncc4c(N5CC6CCC(C5)N6)nc(OCC56CCCN5CC(F)C6)nc4c3F)c12 ?
**A:** F

**Q:** Assay outcome for CC(C)NCC(C(=O)N1CCN(c2ncnc3c2C(C)CC3O)CC1)c1ccc(Cl)cc1 (stereo unspecified) + C=CC(=O)N1CCN(c2nc(OCC3CCCN3C)nc3c(F)c(-c4nc(N)cc(C)c4C(F)(F)F)c(Cl)cc23)C(C)C1 : what was it?
**A:** T
